Hey, just so you know, these numbers are from PubChem BioAssay.

assay.protocol: endothelial E-selectin expression blockers – imaging, HUVEC, immunofluorescence, MLSMR starter and 10KST1 sets, primary screen (AID 487);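 as to nuclei count: 100% = median nuclei count of all wells on the same plate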
test.context: HUVEC TNFalpha-induced E-selectin immunofluorescence imaging, at 2 µM; measured here: cell number, toxicity
Exercise: state measured nuclei count for each of the molecules provided.
Give bare numbers, in %.

Some molecules with known nuclei count results, for comparison:
- molecule: "Cc1cccc(-n2c(SCc3cc(=O)n4ccsc4n3)nc3ccccc32)c1"
  unit.string: "%"
  nuclei count: 112
- molecule: "CC(=O)c1cccc(NC(=O)NCc2ccco2)c1"
  unit.string: "%"
  nuclei count: 79.8
- molecule: "Cc1ccc(C(=O)OCC(=O)Nc2ccc3c(c2)OCO3)o1"
  unit.string: "%"
  nuclei count: 112
- molecule: "CC(NC(=O)c1ccc2c(c1)OCO2)C(c1cccs1)N1CCOCC1 (stereo not drawn)"
  unit.string: "%"
  nuclei count: 115

Batch of 4 molecules: report nuclei count for each.
1. COc1ccc(CCNC(=O)c2cnn3ccccc23)c(OC)c1OC
2. COc1ccccc1S(=O)(=O)Cc1ccc(C(=O)N2CCN(c3ccccn3)CC2)o1
3. O=C(O)CCc1ccc(-c2cccs2)n1CCC(=O)O
4. COc1ccc(NC(=O)c2ccco2)cc1NC(=O)c1cccs1

Ans:
[115, 104, 116, 92.8]

###

assay.protocol: endothelial E-selectin expression blockers – imaging, HUVEC, immunofluorescence, MLSMR starter and 10KST1 sets, primary screen (AID 487)
test.context: HUVEC TNFalpha-induced E-selectin immunofluorescence imaging, at 2 µM
Calls of active or inactive are those of the source.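 How the source made its calls: active means visually confirmed hit in the image check and inhibition above 20%; inconclusive means visually confirmed hit but inhibition not above 20%; inactive means no visual hit in the image check.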
Your response should consist of one outcome taken from T = active, F = inactive

- compound: "COc1ccc(OC)c2[nH]c(=O)c(CCNC(=O)CC(C)C)cc12"
  group.label: "T"
- compound: "COc1ccc(S(=O)(=O)N2CCN(S(=O)(=O)c3ccc4c(c3)OCCO4)CC2)cc1C"
  group.label: "F"

Q: In this assay, the call recorded for CC(C)OC(=O)c1cc(NC(=O)C2C3CCC(O3)C2C(=O)O)cc(C(=O)OC(C)C)c1 (stereo not drawn) was what?
Ans: F

Q: Likewise for O=C(CN1CCN(Cc2ccccc2)CC1)NCC1COc2ccccc2O1 (stereo not drawn) ?
Ans: F

Q: Likewise for CC(Oc1ccccc1)C(=O)Nc1ccc(S(=O)(=O)NCC2CCCO2)cc1 (stereo not drawn) ?
Ans: F

Q: Likewise for CCOc1cccc(-c2nnc3n2N=C(c2cc(OC)ccc2OC)CS3)c1 ?
Ans: F

###

subject.of.test: Alpha-2C adrenergic receptor (Homo sapiens)
assay.protocol: compounds altering alpha2C-coupled GIRK flux – cell-based, HEK293 alpha2C/GIRK1/2, thallium flux, primary screen (AID 624);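 also: slope of fluorescence ratio to pre-addition baseline per second over 15 to 24 s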
test.context: thallium flux BTC fluorescence, at 10 µM, actives lie on both sides
Note to self: slope under 0.005 means satisfied, ties and anything higher get not satisfied.

- molecule: "Oc1cccc(Nc2nc(NCC3CCCO3)c3ccccc3n2)c1 (stereo unspecified)"
  group.label: "satisfied"
- molecule: "CC1(C)CC(=O)C2=C(C1)Nc1ccccc1N=C2"
  group.label: "satisfied"
- molecule: "Nc1nonc1-n1nnc(C(=O)c2ccccc2)c1-c1ccccc1"
  group.label: "not satisfied"
- molecule: "CCOC(=O)c1ccccc1NC(=O)c1c(O)c2ccccc2n(CC)c1=O"
  group.label: "not satisfied"
- molecule: "CC1CC(C)CN(c2nc3c(c(=O)[nH]c(=O)n3C)n2CCCSc2nc3ccccc3s2)C1 (stereo unspecified)"
  group.label: "not satisfied"

Field: next molecule
Q: Check if slope falls below 0.005 for COc1ccc(C(=O)COC(=O)CCn2nnc(-c3cccs3)n2)cc1 .
Ans: not satisfied
